# GI50 per record follows
test system: HCC-2998 cells; test: In vitro cytotoxicity / cell growth inhibition, colon cancer; format: cell-based; conditions: Homo sapiens; HCC-2998, colon cancer, 48 hr; read-out: log10 G150 (converted)
State just the number; it will be interpreted in µM.

Worked set:
CC(CCNCCCCNCCC(C)N1CC1)N1CC1 (stereo not shown) [Synthesis Example 3, 2,13-Diaziridinyl-5,10-diazatetradecane] :: 55
CC1CN1CCCNCCCCNCCCN1CC1C (stereo not shown) [Synthesis Example 4] :: 19.1
C(CNCCCN1CC1)CNCCCN1CC1 [Synthesis Example 2, 1,11-Diaziridinyl-4,8-diazaundecane] :: 20.4

We next turn to a different molecule, shown below.
Bench note: what GI50 did C(CCNCCCN1CC1)CNCCCN1CC1 [Synthesis Example 1, 1,12-Diaziridinyl-4,9-diazadodecane] show?
1.82

###

system: U251 cells; assay: In vitro cytotoxicity / cell growth inhibition, CNS cancer; type: cell-based; details: Homo sapiens, U-251, 48 hr, read-out: log10 G150 (converted)
PROPERTY: GI50 (µM)
State just the number; it will be interpreted in µM.

Worked set:
C(CCNCCCN1CC1)CNCCCN1CC1 [Synthesis Example 1, 1,12-Diaziridinyl-4,9-diazadodecane] :: 0.417
C(CNCCCN1CC1)CNCCCN1CC1 [Synthesis Example 2, 1,11-Diaziridinyl-4,8-diazaundecane] :: 6.92
CC1CN1CCCNCCCCNCCCN1CC1C (stereo not shown) [Synthesis Example 4] :: 13.2

We next turn to a different compound, shown below.
Bench note: what GI50 did CC(CCNCCCCNCCC(C)N1CC1)N1CC1 (stereo not shown) [Synthesis Example 3, 2,13-Diaziridinyl-5,10-diazatetradecane] show?
15.8

###

test system: NCl-H322M cells; experiment: In vitro cytotoxicity / cell growth inhibition, non-small cell lung cancer; format: cell-based; conditions: Homo sapiens, 48 hr, read-out: log10 G150 (converted)
PROPERTY: GI50 (µM)
State just the number; it will be interpreted in µM.

Worked set:
CC(CCNCCCCNCCC(C)N1CC1)N1CC1 (stereo not shown) [Synthesis Example 3, 2,13-Diaziridinyl-5,10-diazatetradecane] :: 63.1
C(CCNCCCN1CC1)CNCCCN1CC1 [Synthesis Example 1, 1,12-Diaziridinyl-4,9-diazadodecane] :: 4.57
CC1CN1CCCNCCCCNCCCN1CC1C (stereo not shown) [Synthesis Example 4] :: 91.2

We next turn to a different compound, shown below.
Bench note: what GI50 did C(CNCCCN1CC1)CNCCCN1CC1 [Synthesis Example 2, 1,11-Diaziridinyl-4,8-diazaundecane] show?
36.3

###

# GI50 per record follows
Tested on: NCl-H23 cells
Test: In vitro cytotoxicity / cell growth inhibition, non-small cell lung cancer
Format: cell-based
Conditions: Homo sapiens, 48 hr, read-out: log10 G150 (converted)
Procedure: The anti-proliferative activities of the aziridinylpolyamines obtained in Synthesis Examples 1-4 were assessed by determining log10 G150 values against human cancer cell lines using the screening strategy described by Boyd et al, Drug Devel. Res. 34:91-109 (1995). More specifically, the compounds were tested at a minimum of five concentrations at 10-fold dilutions using a 48 hr continuous exposure protocol. Each cell line shown in Table 1 below was inoculated onto microtiter plates. […]
Enter the number, and then the unit.

CC(CCNCCCCNCCC(C)N1CC1)N1CC1 (stereo not shown) [Synthesis Example 3, 2,13-Diaziridinyl-5,10-diazatetradecane] :: 13.2 µM
CC1CN1CCCNCCCCNCCCN1CC1C (stereo not shown) [Synthesis Example 4] :: 8.71 µM
C(CNCCCN1CC1)CNCCCN1CC1 [Synthesis Example 2, 1,11-Diaziridinyl-4,8-diazaundecane] :: 10.7 µM

Bench note: what GI50 did C(CCNCCCN1CC1)CNCCCN1CC1 [Synthesis Example 1, 1,12-Diaziridinyl-4,9-diazadodecane] show?
0.263 µM
